Reported values of CC50 for individual entries
# assayDetails: in vitro
# measurementContext: dog

Before answering, review these 3 worked examples.
Cc1cc(C)nc(NS(=O)(=O)c2ccc(NCN3CCN(c4cc5c(cc4F)c(=O)c(C(=O)O)cn5C4CC4)CC3)cc2)n1 ... > 100 µg/mL
O=C(O)c1cn(C2CC2)c2cc(N3CCN(CNc4ccc(S(=O)(=O)Nc5ncccn5)cc4)CC3)c(F)cc2c1=O ... > 100 µg/mL
NC(=O)c1ncn([C@@H]2O[C@H](CO)[C@@H](O)[C@H]2O)n1 [Ribavirin, ribavirin, reference compound] ... > 100 µg/mL

Task item: Look up CC50 for this compound: COc1c(N2CCN(CNc3ccc(S(N)(=O)=O)cc3)CC2)c(F)cc2c(=O)c(C(=O)O)cn(C3CC3)c12
Reply: > 100 µg/mL

Task item: Consider the compound shown here: COc1c(N2CCN(CNc3ccc(S(=O)(=O)Nc4ncccn4)cc3)CC2)c(F)cc2c(=O)c(C(=O)O)cn(C3CC3)c12 What is its recorded CC50?
Reply: > 100 µg/mL

Task item: Sample CCn1cc(C(=O)O)c(=O)c2cc(F)c(N3CCN(CNc4ccc(S(N)(=O)=O)cc4)CC3)cc21 — what was its CC50?
Reply: > 100 µg/mL

Task item: # lookup: CC50 of COc1c(N2CCN(CNc3ccc(S(=O)(=O)Nc4nc(C)cc(C)n4)cc3)CC2)c(F)cc2c(=O)c(C(=O)O)cn(C3CC3)c12
Reply: > 100 µg/mL
